experiment: gradient 5% acetonitrile 3 min, to 50% in 2 min, to 85% in 15 min, held 3 min, 100 µL/min; conditions: column: Zorbax Extend-C18 2.1 x 50 mm; eluents: water / acetonitrile, 0.1% formic acid
# Lookup of reported RP-LC retention time keyed by entry
The figure you give is taken to be in s; do not add the unit.

Task: Would you mind telling me what RP-LC retention time value was observed for CCCNc1cc(N2CCC(CCC(=O)NCc3ccc(F)cc3Cl)CC2)ncn1 ?
Result: 727

---

experiment: gradient 5% acetonitrile 3 min, to 50% in 2 min, to 85% in 15 min, held 3 min, 100 µL/min; conditions: column: Zorbax Extend-C18 2.1 x 50 mm; eluents: water / acetonitrile, 0.1% formic acid
parameter.measured: RP-LC retention time (s)
Answer with a number only, understood to be in s.

INSERT INTO measurements (compound, measurement) VALUES
  ('CC(Oc1ccccc1F)C(=O)Nc1nc(-c2ccc(S(=O)(=O)N3CCOCC3)cc2)cs1 (stereo not given)', 1010),
  ('CCCOc1ccc(-c2nc(N3CCC(C)CC3)c3ccccc3n2)cc1', 1010),
  ('CCCn1ccc2oc(C)c(C(=O)N3CCN(C4CCCCC4)CC3)c2c1=O', 612),
  ('Clc1ccc(-c2nc(-c3ccc4nncn4c3)no2)cc1', 896);

Next, consider the following compound.
Task: Tell me the measured RP-LC retention time of COCCNC(=O)NC1CCN(C2=NS(=O)(=O)C(c3ccc(C)cc3)=C2C)CC1 , please.
Result: 1140
